Ref: BindingDB's records for doi:10.7270/Q2TQ5ZZB

# Target of assay: G-protein coupled receptor 35 (Homo sapiens, UniProt Q9HC97)
# Sequence (Q9HC97 whole entry): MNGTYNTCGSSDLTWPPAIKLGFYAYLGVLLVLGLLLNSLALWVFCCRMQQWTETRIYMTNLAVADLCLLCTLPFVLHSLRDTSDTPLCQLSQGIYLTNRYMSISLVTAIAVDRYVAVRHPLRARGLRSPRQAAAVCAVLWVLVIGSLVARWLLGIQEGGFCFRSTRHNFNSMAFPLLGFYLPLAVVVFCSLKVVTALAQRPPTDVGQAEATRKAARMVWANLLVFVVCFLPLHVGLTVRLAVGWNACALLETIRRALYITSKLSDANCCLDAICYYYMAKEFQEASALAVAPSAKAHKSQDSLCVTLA
# Procedure text: inhibition of zaprinast-stimulated GPR35 beta-arrestin translocation – imaging, U2OS, beta-arrestin-GFP, zaprinast agonist, primary screen (AID 2058)
Can you tell me pIC50 for the items I'm about to list?
Answers are plain numbers, as −log10 of the molar value.

Some compounds with known pIC50 results, for comparison:
>>> readout_number("CN1CCC2=C(C#N)C(=N)C(C#N)(C#N)C(c3ccsc3)C2C1 (stereo not given)")
6.00
>>> readout_number("Oc1ccc(CN=Nc2nc(-c3ccccc3F)nc3ccccc23)c(O)c1")
5.51
>>> readout_number("COc1cccc(C2C3CN(C)CCC3=C(C#N)C(=N)C2(C#N)C#N)c1OC (stereo not given)")
5.56
>>> readout_number("CN1CCC2=C(C#N)C(=N)C(C#N)(C#N)C(c3cccc(Cl)c3Cl)C2C1 (stereo not given)")
4.92

Here is another compound to look at.
Input: Identify measured pIC50 associated with CC1(C)Cc2c(ccc3ccccc23)C(CC(=O)N2CCCCC2)=N1
Output: 4.96
